target: human GLP-1 receptor (human, UniProt P43220 24-463); test: cell-based or functional assay
Threshold 4 nM. EC50, CreLuc reporter, 100% hP below it: satisfied. EC50, CreLuc reporter, 100% hP at it or above: not satisfied.

YXEGTFTSDYSIXLDRQAQXAFVRHLINKXTRQRY (Aib at 2, 13, 20, 30; Lys29 epsilon-amino: C18DA-gGlu-gGlu-gGlu-gGlu-gGlu-gGlu-eLys; C-terminal amide) [Compound 147]    satisfied
YXEGTFTSDYSIXLEKQAQXEFVRHLINKXTRQRY (Aib at 2, 13, 20, 30; Lys29 epsilon-amino: C18DA-gGlu-gGlu-gGlu-gGlu-gGlu-gGlu-eLys; C-terminal amide) [Compound 145]    satisfied
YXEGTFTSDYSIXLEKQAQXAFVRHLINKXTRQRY (Aib at 2, 13, 20, 30; Lys29 epsilon-amino: C18DA-TRX-gGlu-gGlu-gGlu-gGlu-gGlu-gGlu-eLys; C-terminal amide) [Compound 137]    not satisfied
YXEGTFTSDYSIXLEKQAEXAFVRHLINKXTRQRY (Aib at 2, 13, 20, 30; Lys29 epsilon-amino: C20DA-gGlu-gGlu-gGlu-gGlu-gGlu-gGlu-eLys; C-terminal amide) [Compound 104]    not satisfied
